Data provenance is ChEMBL document CHEMBL3797147.

Assign IC50 to each entry below.
system: RAW264.7; test: Anti-inflammatory activity in mouse RAW264.7 cells assessed as reduction in LPS-induced nitric oxide production level pre-incubated for 2 hrs before LPS stimulation for 24 hrs by Griess assay relative to untreated control; format: functional, cell-based
Write the answer as a number in µM, unit excluded.

stdin: Value lookup for IC50; key = COC(=O)/C(=C/c1ccc(OC)c(OC)c1)c1ccc(OC)cc1
stdout: 37.3

stdin: Next compound: CCN(CC)C(=O)c1cc2cc(OC)c(OC)cc2c2cc(OC)c(OC)cc12
stdout: 20.3

stdin: Next compound: COC(=O)/C(=C/c1ccc(OC)c(OC)c1)c1ccc(OC)c(OC)c1
stdout: 5.05
